Tested on: TERT-RPE1
Assay: Cytotoxicity against human RPE1 cells at 0.0003 to 100 uM after 48 hrs by ATPlite assay
Assay type: cell-based
Conditions: tert-rpe1, 48 h
RECORDED METRIC: Activity

COc1cc(C2Oc3c(O)cc([C@H]4Oc5cc(O)cc(O)c5C(=O)[C@@H]4O)cc3C2CO)ccc1O (some centres not stated)	Non-Toxic
COc1cc(-c2oc3c(O)cc(-c4oc5cc(O)cc(O)c5c(=O)c4O)cc3c2C)ccc1O	Toxic
COc1cc([C@H]2Oc3cc([C@H]4Oc5cc(O)cc(O)c5C(=O)[C@@H]4O)ccc3O[C@@H]2CO)ccc1O	Toxic
COc1cc(C2Oc3cc(-c4oc5cc(O)cc(O)c5c(=O)c4O)ccc3OC2CO)ccc1O (configuration not stated) [DEHYDROSILYLBIN]	Toxic
COc1cc([C@@H]2Oc3c(O)cc(-c4oc5cc(O)cc(O)c5c(=O)c4O)cc3[C@H]2CO)ccc1O	Toxic
CC[C@@]1(O)C(=O)OCc2c1cc1n(c2=O)Cc2cc3ccccc3nc2-1	Toxic

Please look at the following molecule next.
# value lookup — system TERT-RPE1, readout Activity, item COc1cc([C@@H]2Oc3c(O)ccc([C@H]4Oc5cc(O)cc(O)c5C(=O)[C@@H]4O)c3[C@H]2CO)ccc1O
Non-Toxic

====

System: CAL-51
Experiment: Cytotoxicity against human CAL51 at 0.0003 to 100 uM after 48 hrs by ATPlite assay
Format: cell-based
Details: cal-51, 48 h
RECORDED METRIC: Activity

Worked cases, Activity given:
COc1cc([C@@H]2Oc3cc([C@H]4Oc5cc(O)cc(O)c5C(=O)[C@@H]4O)ccc3O[C@H]2CO)ccc1O [SILYBIN B]	Toxic
COc1cc(C2Oc3c(O)cc([C@H]4Oc5cc(O)cc(O)c5C(=O)[C@@H]4O)cc3C2CO)ccc1O (some centres not stated) [SILICRISTIN]	Non-Toxic
COc1cc(C2Oc3cc(-c4oc5cc(O)cc(O)c5c(=O)c4O)ccc3OC2CO)ccc1O (configuration not stated) [DEHYDROSILYLBIN]	Toxic
COc1cc([C@H]2Oc3cc([C@H]4Oc5cc(O)cc(O)c5C(=O)[C@@H]4O)ccc3O[C@@H]2CO)ccc1O [SILYBIN A]	Toxic

Batch: Activity for all items listed.
1. COc1cc(-c2oc3c(O)cc([C@H]4Oc5cc(O)cc(O)c5C(=O)[C@@H]4O)cc3c2C)ccc1O
2. CC[C@@]1(O)C(=O)OCc2c1cc1n(c2=O)Cc2cc3ccccc3nc2-1 [CAMPTOTHECIN]
3. COc1cc([C@@H]2Oc3c(O)ccc([C@H]4Oc5cc(O)cc(O)c5C(=O)[C@@H]4O)c3[C@H]2CO)ccc1O [ISOSILYCHRISTIN]

Toxic
Toxic
Non-Toxic

====

Tested on: MDA-MB-231
Test: Cytotoxicity against human MDA-MB-231 cells at 0.0003 to 100 uM after 48 hrs by ATPlite assay
Format: cell-based
Conditions: mda-mb-231, 48 h
RECORDED METRIC: Activity

COc1cc([C@@H]2Oc3c(O)cc([C@@H]4CC(=O)c5c(O)cc(O)cc5O4)cc3[C@H]2CO)ccc1O	Toxic
COc1cc(-c2oc3c(O)cc([C@H]4Oc5cc(O)cc(O)c5C(=O)[C@@H]4O)cc3c2C)ccc1O	Toxic
COc1cc(C2Oc3c(O)cc([C@H]4Oc5cc(O)cc(O)c5C(=O)[C@@H]4O)cc3C2CO)ccc1O (some centres undefined)	Non-Toxic
COc1cc([C@@H]2Oc3c(O)ccc([C@H]4Oc5cc(O)cc(O)c5C(=O)[C@@H]4O)c3[C@H]2CO)ccc1O	Non-Toxic

The reported measurements were obtained from ChEMBL document CHEMBL3994598.
